Provenance of the data: paper PMC3203319

- protocol.text: Plasma stability
- Assay type: in vitro ADME
- test.parameters: rat
reported.property: half-life (h)
Give the quantity in h, number only.

Find the recorded half-life belonging to O=[N+]([O-])c1ccc(-c2nc3cccc(O)c3[nH]2)o1 [Compound 3e] and report it.
3.9

* * *

- protocol.text: Plasma stability
- Assay type: in vitro ADME
- test.parameters: monkey
reported.property: half-life (h)
Respond with the bare value in h.

Entry under review: O=[N+]([O-])c1ccc(-c2nc3cccc(O)c3[nH]2)o1 . Reported half-life?
2

* * *

- protocol.text: Liver S9 fraction stability
- Assay type: in vitro ADME, human
- test.parameters: human, liver S9 fraction
reported.property: half-life (min)
Number in min, nothing else.

Return reported half-life; argument: O=[N+]([O-])c1ccc(-c2nc3cccc(O)c3[nH]2)o1
12.6
